Cited source for all entries: patent US10399989B2

Please go through the items and note down their IC50.
subject.of.test: BTK^WT (Homo sapiens (Human), UniProt Q06187)
Sequence (Q06187 whole entry): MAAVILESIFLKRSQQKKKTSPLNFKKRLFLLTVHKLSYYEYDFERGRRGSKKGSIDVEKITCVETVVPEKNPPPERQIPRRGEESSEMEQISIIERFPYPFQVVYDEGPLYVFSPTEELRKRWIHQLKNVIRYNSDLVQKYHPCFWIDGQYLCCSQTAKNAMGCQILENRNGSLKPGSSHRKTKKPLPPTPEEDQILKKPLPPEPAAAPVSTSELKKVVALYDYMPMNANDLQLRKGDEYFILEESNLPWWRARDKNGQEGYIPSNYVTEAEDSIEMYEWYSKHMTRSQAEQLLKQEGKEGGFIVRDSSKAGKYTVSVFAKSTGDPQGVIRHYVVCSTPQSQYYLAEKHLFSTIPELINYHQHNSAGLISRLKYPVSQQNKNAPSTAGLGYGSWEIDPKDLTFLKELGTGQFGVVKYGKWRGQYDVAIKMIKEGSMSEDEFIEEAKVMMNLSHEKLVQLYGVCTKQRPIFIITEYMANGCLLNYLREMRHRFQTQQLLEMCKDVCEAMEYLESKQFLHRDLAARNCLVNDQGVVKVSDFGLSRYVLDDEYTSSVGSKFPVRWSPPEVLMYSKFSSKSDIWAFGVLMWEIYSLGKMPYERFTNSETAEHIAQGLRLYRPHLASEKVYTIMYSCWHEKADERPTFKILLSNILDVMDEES
measurement.description: BTK^WT binding affinity (TR-FRET, LanthaScreen)
condition.description: TR-FRET binding, 5 h incubation; read-out: BTK^WT IC50

Here is how some compounds turned out for IC50.
## Task Would you kindly share the measured IC50 for `COc1ccc(F)cc1C(=O)NCc1ccc(-c2nn(C3CCCC3)c3ncnc(N)c23)cc1` ?
## Result ≤ 10 nM

## Task Would you kindly share the measured IC50 for `COc1cc2ccccc2cc1C(=O)NCc1ccc(-c2nn(C3CCCC3)c3ncnc(N)c23)cc1` ?
## Result 100 to 1000 nM

## Task Would you kindly share the measured IC50 for `COc1ccccc1C(=O)NCc1c(F)cc(-c2nn(C3CCCC3)c3ncnc(N)c23)cc1F` ?
## Result 100 to 1000 nM

## Task Would you kindly share the measured IC50 for `COc1ccccc1C(=O)NCc1ccc(-c2nn(C3CCCC3)c3ncnc(N)c23)cc1C` ?
## Result ≤ 10 nM

## Task Would you kindly share the measured IC50 for `COc1ccccc1C(=O)NCc1ccc(-c2nn(C3CCC(=O)CC3)c3ncnc(N)c23)cc1` ?
## Result 10 to 100 nM

The following compounds each have a reported value; give each one's IC50.
1. Nc1ncnc2c1c(-c1ccc(CNC(=O)c3nccc4ccccc34)cc1)nn2C1CCCC1
2. COc1ccccc1C(=O)NCc1ccc(-c2nn(C3CCC(OC)CC3)c3ncnc(N)c23)cc1 (centres unmarked)
3. Nc1ncnc2c1c(-c1ccc(CNC(=O)c3nc4ccccc4s3)cc1)nn2C1CCCC1

## Result
1. 100 to 1000 nM
2. ≤ 10 nM
3. > 10000 nM

* * *

subject.of.test: BTK^WT (Homo sapiens (Human), UniProt Q06187)
measurement.description: BTK^WT binding affinity (TR-FRET, LanthaScreen)
condition.description: TR-FRET binding, 5 h incubation; read-out: BTK^WT IC50
Experimental: BTK^WT binding affinity of each compound tested was determined using a time-resolved fluorescence resonance energy transfer (TR-FRET) methodology. 2.5 nM Recombinant BTK^WT kinase, varying concentrations of inhibitor, 2 nM LanthaScreen™ Eu anti-His Antibody and 15 nM Kinase Tracer 236 was incubated in 1× LanthaScreen™ Kinase Buffer A for 5 h. […] The TR-FRET signal was read on a plate reader with an excitation wavelength of 340 nm and detection wavelengths of 615 and 665 nm. […]
Please go through the items and note down their IC50.

The following compounds each have a reported value; give each one's IC50.
1. COc1ccccc1C(=O)NC1(c2ccc(-c3nn(C4CCCC4)c4ncnc(N)c34)cc2)CC1
2. COc1ccccc1C(=O)NCc1ccc(-c2nn([C@@H]3C=C[C@@H](O)C3)c3ncnc(N)c23)cc1
3. COc1ccncc1C(=O)NCc1ccc(-c2nn(C3CCCC3)c3ncnc(N)c23)cc1
4. COc1ccc(F)cc1C(=O)NCc1ccc(-c2nn(C3CCCC3)c3ncnc(N)c23)cc1F

## Result
1000 to 10000 nM
≤ 10 nM
10 to 100 nM
≤ 10 nM

* * *

subject.of.test: BTK^WT (Homo sapiens (Human))
measurement.description: BTK^WT binding affinity (TR-FRET, LanthaScreen)
condition.description: TR-FRET binding, 5 h incubation; read-out: BTK^WT IC50
pIC50: −log10 of the molar value.
metric.name: pIC50

Here is how some molecules turned out for pIC50.
## Task # get_value(readout= pIC50, system= BTK^WT (Homo sapiens (Human))) for `COc1ccc(F)cc1C(=O)NCc1ccc(-c2nn(CC(F)(F)F)c3ncnc(N)c23)cc1`
## Result ≥ 8.00

## Task # get_value(readout= pIC50, system= BTK^WT (Homo sapiens (Human))) for `COc1ccccc1C(=O)NCc1ccc(-c2nn(C3CCC4(CC3)OCCO4)c3ncnc(N)c23)cc1`
## Result ≥ 8.00

## Task # get_value(readout= pIC50, system= BTK^WT (Homo sapiens (Human))) for COc1ccccc1C(=O)NCc1ccc(-c2nn(C3CCC(C(=O)O)CC3)c3ncnc(N)c23)cc1 (stereo not shown)
## Result ≥ 8.00

## Task # get_value(readout= pIC50, system= BTK^WT (Homo sapiens (Human))) for `Nc1ncnc2c1c(-c1ccc(CNC(=O)c3cccc4cccnc34)cc1)nn2C1CCCC1`
## Result ≥ 8.00

## Task # get_value(readout= pIC50, system= BTK^WT (Homo sapiens (Human))) for `COc1ccccc1C(=O)NCc1ccc(-c2nn(C(C)(C)C)c3ncnc(N)c23)cc1`
## Result ≥ 8.00

## Task # get_value(readout= pIC50, system= BTK^WT (Homo sapiens (Human))) for CCOC(=O)C1CCCC(n2nc(-c3ccc(CNC(=O)c4ccccc4OC)cc3)c3c(N)ncnc32)C1 (stereo not shown)
## Result ≥ 8.00

The following molecules each have a reported value; give each one's pIC50.
1. COc1ccccc1C(=O)NCc1ccc(-c2nn(C3CCCC(O)C3)c3ncnc(N)c23)cc1 (stereo not shown)
2. COc1ccccc1C(=O)NCc1ccc(-c2nn(CC(C)O)c3ncnc(N)c23)cc1 (stereo not shown)
3. CC(C)Oc1ccccc1C(=O)NCc1ccc(-c2nn(C3CCCC3)c3ncnc(N)c23)cc1
4. COc1ccccc1C(=O)NCc1ccc(-c2nn(C3C=CCCC3)c3ncnc(N)c23)cc1 (stereo not shown)
5. COc1ccc2ccccc2c1C(=O)NCc1ccc(-c2nn(C3CCCC3)c3ncnc(N)c23)cc1
6. Nc1ncnc2c1c(-c1ccc(CNC(=O)c3cc4ccccc4s3)cc1)nn2C1CCCC1

## Result
["≥ 8.00", "7.00 to 8.00", "7.00 to 8.00", "≥ 8.00", "6.00 to 7.00", "5.00 to 6.00"]

The following molecules each have a reported value; give each one's pIC50.
1. COc1ccccc1C(=O)NCc1ccc(-c2nn(C3CCCC3)c3ncnc(N)c23)cc1F
2. COc1ccc(F)cc1C(=O)NCc1ccc(-c2nn(C3CCC(C)(O)CC3)c3ncnc(N)c23)cc1 (single isomer, unassigned) [Example 95]

## Result
≥ 8.00
≥ 8.00

The following molecules each have a reported value; give each one's pIC50.
1. COc1ccccc1C(=O)NCc1ccc(-c2nn([C@H]3C=C[C@H](NC(C)=O)C3)c3ncnc(N)c23)cc1
2. COc1ccccc1C(=O)NCc1ccc(-c2nn(C3CCCOC3)c3ncnc(N)c23)cc1 (stereo not shown)

## Result
1: ≥ 8.00; 2: ≥ 8.00

* * *

System: OCI-Ly10 human DLBCL cells
measurement.description: OCI-Ly10 anti-proliferative activity (Resazurin, 72 h)
Format: cell-based
condition.description: Homo sapiens, OCI-Ly10, 72 h, read-out: Proliferation OCI-Ly10-IC50
pIC50: −log10 of the molar value.
Please go through the items and note down their pIC50.

## Task Would you kindly share the measured pIC50 for `COc1ccccc1C(=O)NCc1ccc(-c2nn([C@H]3C=C[C@@H](O)C3)c3ncnc(N)c23)cc1` ?
## Result 6.00 to 7.00

## Task Would you kindly share the measured pIC50 for `COc1ccccc1C(=O)NCc1ccc(-c2nn(C3CC=CC3)c3ncnc(N)c23)cc1` ?
## Result 7.00 to 8.00

## Task Would you kindly share the measured pIC50 for `COc1ccccc1C(=O)NCc1ccc(-c2nn([C@H]3C=C[C@H](NC(C)=O)C3)c3ncnc(N)c23)cc1` ?
## Result 6.00 to 7.00

Further cases:
## Task Would you kindly share the measured pIC50 for COc1ccccc1C(=O)NCc1ccc(-c2nn(CC(C)O)c3ncnc(N)c23)cc1 (stereo not shown) ?
## Result 6.00 to 7.00

* * *

Please go through the items and note down their IC50.
subject.of.test: BTK^WT (Homo sapiens (Human), UniProt Q06187)
measurement.description: BTK^WT binding affinity (TR-FRET, LanthaScreen)
condition.description: Table 6, numeric values; read-out: BTK Binding IC50
Give bare numbers, in nM.

Here is how some molecules turned out for IC50.
## Task # get_value(readout= IC50, system= BTK^WT (Homo sapiens (Human), UniProt Q06187)) for COc1ccccc1C(=O)NCc1ccc(-c2nn(C3C=CCCC3)c3ncnc(N)c23)cc1 (stereo not drawn)
## Result 0.4

## Task # get_value(readout= IC50, system= BTK^WT (Homo sapiens (Human), UniProt Q06187)) for `COc1ccccc1C(=O)NCc1ccc(-c2nn(C(C)(C)C)c3ncnc(N)c23)cc1`
## Result 0.6

## Task # get_value(readout= IC50, system= BTK^WT (Homo sapiens (Human), UniProt Q06187)) for CCOC(=O)C1CCCC(n2nc(-c3ccc(CNC(=O)c4ccccc4OC)cc3)c3c(N)ncnc32)C1 (stereo not drawn)
## Result 1.2

## Task # get_value(readout= IC50, system= BTK^WT (Homo sapiens (Human), UniProt Q06187)) for `COc1ccccc1C(=O)NCc1ccc(-c2nn(C3CCCC3)c3ncnc(N)c23)cc1F`
## Result 4

## Task # get_value(readout= IC50, system= BTK^WT (Homo sapiens (Human), UniProt Q06187)) for `COc1ccccc1C(=O)NCc1ccc(-c2nn([C@@H]3CCc4ccccc43)c3ncnc(N)c23)cc1`
## Result 1.2

The following molecules each have a reported value; give each one's IC50.
1. COc1ccccc1C(=O)NCc1ccc(-c2nn(C3CCC(OC)CC3)c3ncnc(N)c23)cc1 (stereo not drawn)
2. COc1ccccc1C(=O)NCc1ccc(-c2nn(C3CCC(C(=O)O)CC3)c3ncnc(N)c23)cc1 (stereo not drawn)
3. COc1ccccc1C(=O)NCc1ccc(-c2nn([C@H]3C=C[C@H](F)C3)c3ncnc(N)c23)cc1
4. COc1ccccc1C(=O)NCc1ccc(-c2nn(C3CCCC(O)C3)c3ncnc(N)c23)cc1 (stereo not drawn)
5. COc1ccccc1C(=O)NCc1ccc(-c2nn(C3CCC(O)CC3)c3ncnc(N)c23)cc1 (single isomer, unassigned) [Example 23-isomer2]
6. COc1ccc(F)cc1C(=O)NCc1ccc(-c2nn(C3CCCC3)c3ncnc(N)c23)cc1
7. COc1ccccc1C(=O)NCc1ccc(-c2nn([C@@H]3CC[C@H](O)C3)c3ncnc(N)c23)cc1 (relative stereo)

## Result
1.4
1.4
0.7
1.7
0.4
0.8
2.2
